Biological target: Bromodomain-containing protein 4 (Homo sapiens)
Assay: Inhibition of recombinant His6-tagged human BRD4 bromodomain 1 expressed in Escherichia coli BL21(DE3)-R3-pRARE2 cells preincubated for 30 mins followed by H4KAc4 peptide substrate addition measured after 30 mins by AlphaScreen assay
Conditions: read-out: pIC50 (converted)
Measured IC50, listed per entry.
Answer with a number only, understood to be in nM.

Observe how each entry below is paired with its result.
* COc1ccccc1C(O)c1cc(O)cc(-c2c(C)noc2C)c1 (centres undefined) | 269
* Cc1noc(C)c1-c1cc(O)cc(CNCc2ccccc2)c1 | 2240
* Cc1noc(C)c1-c1cc(O)cc(C(O)C2CCCCC2)c1 (centres undefined) | 166

# next molecule below
Request the reported IC50 associated with `Cc1noc(C)c1-c1cc(O)cc(CN2CCOCC2)c1`
955

From: ChEMBL document CHEMBL4118192
